Assign ALBUMIN to each entry below.
- Species: Rattus norvegicus
- assayProcedure: DrugMatrix - Regimen: Daily Repeat
- Format: toxicity, organism-based, Sprague-Dawley
- Design: regimen Daily Repeat, gender Male, age 6-8 weeks
- conditionsUsed: in vivo, po, 0 mg/kg, 72 h, tissue Plasma, route oral GAVAGE, dose level Control, time 3 day, […]
Numbers only, in G/DL.

{"compound": "OC(Cn1cncn1)(Cn1cncn1)c1ccc(F)cc1F", "unit": "G/DL", "ALBUMIN": 3.97}

Would you mind listing ALBUMIN for each of the following compounds?
1. C[C@H]1O[C@@H](O[C@H]2[C@@H](O)C[C@H](O[C@H]3[C@@H](O)C[C@H](O[C@H]4CC[C@@]5(C)[C@H](CC[C@@H]6[C@@H]5C[C@@H](O)[C@]5(C)[C@@H](C7=CC(=O)OC7)CC[C@]65O)C4)O[C@@H]3C)O[C@@H]2C)C[C@H](O)[C@@H]1O
2. CCOC(=O)C1=C(COCCN)NC(C)=C(C(=O)OC)C1c1ccccc1Cl (stereo not given)
3. O=c1oc2ccccc2c(O)c1Cc1c(O)c2ccccc2oc1=O
4. CN(C)c1nc(N(C)C)nc(N(C)C)n1

Output:
4.08
3.98
3.97
3.98

====

Assign CREATINE PHOSPHOKINASE to each entry below.
- Species on record: Rattus norvegicus
- assayProcedure: DrugMatrix - Regimen: Daily Repeat
- Format: toxicity, organism-based, Sprague-Dawley
- Set-up: regimen Daily Repeat, gender Male, age 6-8 weeks
- conditionsUsed: in vivo, po, 0 mg/kg, 120 h, tissue Plasma, route oral GAVAGE, dose level Control, time 5 day, vehicle .5 % CMC
Give bare numbers, in u/L.

Some solved entries appear below for comparison.
{"molecule": "CN1CCN(CCCN2c3ccccc3Sc3ccc(Cl)cc32)CC1 [PROCHLORPERAZINE]", "CREATINE PHOSPHOKINASE [u/L]": 239.5}
{"molecule": "OCCN(CCO)c1nc(N2CCCCC2)c2nc(N(CCO)CCO)nc(N3CCCCC3)c2n1 [DIPYRIDAMOLE]", "CREATINE PHOSPHOKINASE [u/L]": 130}

CREATINE PHOSPHOKINASE reported for this molecule CCn1cc(C(=O)O)c(=O)c2cc(F)c(N3CCNCC3)cc21 [NORFLOXACIN] : 273.5

====

Assign CREATININE to each entry below.
- Species on record: Rattus norvegicus
- assayProcedure: DrugMatrix - Regimen: Daily Repeat
- Assay type: toxicity, organism-based, Sprague-Dawley
- Parameters: regimen Daily Repeat, gender Male, age 6-8 weeks
- conditionsUsed: in vivo, po, 0 mg/kg, 120 h, tissue Plasma, route oral GAVAGE, dose level Control, time 5 day, vehicle .5 % CMC
One number for each entry, in mg/dL.

Some solved entries appear below for comparison.
{"compound": "Cc1nc2n(c(=O)c1CCN1CCC(c3noc4cc(F)ccc34)CC1)CCCC2 [RISPERIDONE]", "CREATININE [mg/dL]": 0.75}
{"compound": "N=C(N)NCCN1CCCCCCC1 [GUANETHIDINE]", "CREATININE [mg/dL]": 0.53}
{"compound": "Nc1ccn([C@H]2CC[C@@H](CO)O2)c(=O)n1 [ZALCITABINE]", "CREATININE [mg/dL]": 0.3}
{"compound": "NC1=NC(=O)C(c2ccccc2)O1 (stereo not given) [PEMOLINE]", "CREATININE [mg/dL]": 0.62}

Please look at the following compound next.
CREATININE reported for this compound CC1CC(OC(=O)C(O)c2ccccc2)CC(C)(C)C1 (stereo not given) [CYCLANDELATE] : 0.53
